B1: Caulobacter ParB omega fusion; a variant is named by its letters at X, in order, B8GW30 (parent)
chain: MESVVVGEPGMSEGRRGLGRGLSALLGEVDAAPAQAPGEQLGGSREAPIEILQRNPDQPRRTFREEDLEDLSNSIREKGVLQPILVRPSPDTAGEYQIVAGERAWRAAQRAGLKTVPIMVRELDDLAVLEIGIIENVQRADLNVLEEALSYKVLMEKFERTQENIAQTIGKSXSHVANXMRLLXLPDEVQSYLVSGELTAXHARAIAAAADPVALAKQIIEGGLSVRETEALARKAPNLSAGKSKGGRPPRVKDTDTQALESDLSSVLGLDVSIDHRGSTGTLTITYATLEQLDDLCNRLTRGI

variants of: B1; assay: one-hybrid fitness for binding NBS DNA (the Noc-binding site; scaled: cognate 1, non-cognate 0); higher = stronger binding; details: with NBS DNA site
Over roughly 81,000 sequences, “one-hybrid fitness for binding NBS DNA” has its median near -0.1; the highest 2% begin near 0.36. What follows is part of a selection rich in the highest values, with near analogues and random picks from the rest.
QUANTITY_KIND: one-hybrid fitness for binding NBS DNA

>>> observed("RRTG")
0.331
>>> observed("SGTG")
"≤ 0.2"
>>> observed("RHTT")
0.427
>>> observed("ELER")
"≤ 0.2"
>>> observed("RQQN")
"≤ 0.2"
>>> observed("RRTQ")
0.243
>>> observed("DRAR")
"≤ 0.2"
>>> observed("VLYQ")
"≤ 0.2"
>>> observed("GEAG")
"≤ 0.2"
>>> observed("RPMS")
"≤ 0.2"
>>> observed("HEHG")
"≤ 0.2"
>>> observed("GKLV")
"≤ 0.2"
>>> observed("NGWG")
"≤ 0.2"
>>> observed("RFTT")
0.269
>>> observed("RHTD")
"≤ 0.2"
>>> observed("QRGY")
0.571
>>> observed("VCRV")
"≤ 0.2"
>>> observed("QCLR")
0.562
>>> observed("QRYY")
0.433
>>> observed("TWKT")
"≤ 0.2"
>>> observed("ITFA")
"≤ 0.2"
>>> observed("RQFR")
0.262
>>> observed("DILR")
"≤ 0.2"
>>> observed("RTTT")
0.543
>>> observed("PIEV")
"≤ 0.2"
>>> observed("APPH")
"≤ 0.2"
>>> observed("RSMS")
0.351
>>> observed("EGHG")
"≤ 0.2"
>>> observed("QPHY")
"≤ 0.2"
>>> observed("QPLR")
"≤ 0.2"
